Quick reference: % Inhibition with 100 µM compound (fluorescence assay) of the listed items.
- targetEntity: recombinant active Casp6 (Casp6-WT) (Homo sapiens, UniProt P55212, INS179NQTEKLDTNITEVD)
- Construct: generating mainly large subunit with a linker (LS-L), small subunit (SS), and a minor amount of large subunit (LS); His (C); made in house; host or cells: E. coli BL21(DE3)pLysS
- Sequence (P55212 24-193 limits assumed, stated change not applied): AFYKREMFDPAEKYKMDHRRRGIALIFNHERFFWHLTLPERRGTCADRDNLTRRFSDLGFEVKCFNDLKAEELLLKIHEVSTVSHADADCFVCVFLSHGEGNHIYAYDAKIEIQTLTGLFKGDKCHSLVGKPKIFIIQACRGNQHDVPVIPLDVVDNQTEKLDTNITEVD
- Sequence (P55212 194-293 limits assumed, stated change not applied): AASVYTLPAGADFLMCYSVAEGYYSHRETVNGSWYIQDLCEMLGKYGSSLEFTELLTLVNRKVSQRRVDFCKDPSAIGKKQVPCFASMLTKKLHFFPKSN
- experimentSummary: Fluorescence-based Ac-VEID-AFC cleavage assay (Casp6 activity, IC50 determination)
- Type: biochemical
- condition: 100 µM compound, 10 µM Ac-VEID-AFC, 20 nM Casp6, relative to 1% DMSO control
Marks after values point to notes of the source that are not given here.

compound	reportedResult
Cc1nn(-c2ccccc2)c2c1C(c1cccc(OCc3ccccc3)c1)C(C#N)=C(N)O2 (centres unmarked)	33.8 ± 12.1%

Please look at COC(=O)c1cc(CNC(=O)c2c(-c3ccccc3)noc2C)cc(NC(=O)c2ccco2)c1 [Compound C13D] and tell me its recorded % Inhibition with 100 µM compound (fluorescence assay) on recombinant active Casp6 (Casp6-WT) (Homo sapiens, UniProt P55212, INS179NQTEKLDTNITEVD). 5.5 ± 4.1^a %

Under recombinant active Casp6 (Casp6-WT) (Homo sapiens, UniProt P55212, INS179NQTEKLDTNITEVD), report % Inhibition with 100 µM compound (fluorescence assay) for COC(=O)c1cc(CNC(=O)C(C)(C)C)cc(NC(=O)c2ccco2)c1 [Compound C13E] −8.3 ± 1.7^a %

Give % Inhibition with 100 µM compound (fluorescence assay) for COC(=O)c1cc(CN)cc(NC(=O)c2ccco2)c1 [Compound C13B] tested on recombinant active Casp6 (Casp6-WT) (Homo sapiens, UniProt P55212, INS179NQTEKLDTNITEVD). 2.3 ± 3.1^a %

Report the value of % Inhibition with 100 µM compound (fluorescence assay) obtained on recombinant active Casp6 (Casp6-WT) (Homo sapiens, UniProt P55212, INS179NQTEKLDTNITEVD) for O=C(Cn1cc(/C=C2/C(=O)NC(=O)N(Cc3ccco3)C2=O)c2ccccc21)NCC1CCCO1 (centres unmarked) . 59.7 ± 3.8%

Supply % Inhibition with 100 µM compound (fluorescence assay) measured with recombinant active Casp6 (Casp6-WT) (Homo sapiens, UniProt P55212, INS179NQTEKLDTNITEVD) for COC(=O)c1cc(CNC(=O)C2(c3ccc(Cl)cc3)CCC2)cc(NC(=O)c2ccco2)c1 [Compound C13F] . 43.2 ± 10.9^a %

Fill: % Inhibition with 100 µM compound (fluorescence assay) (recombinant active Casp6 (Casp6-WT) (Homo sapiens, UniProt P55212, INS179NQTEKLDTNITEVD)) for this compound Nc1nc2c(s1)C(c1ccc(OCc3cccc(F)c3)cc1)CC(=O)N2 (centres unmarked) 30.0 ± 6.0%

State % Inhibition with 100 µM compound (fluorescence assay) on recombinant active Casp6 (Casp6-WT) (Homo sapiens, UniProt P55212, INS179NQTEKLDTNITEVD). Entry: COC(=O)c1cc(CNC(=O)c2cc(C)cc(C)c2)cc(NC(=O)c2ccco2)c1 [Compound C13G] 55.5 ± 8.8^a %
